Test system: primary rat microglia
Conditions: rat
# if measured LPS % cell toxicity < 1%: satisfied  # else: not satisfied

compound="Cc1c(NC(=O)c2cccnc2)c(=O)n(-c2ccccc2)n1C [Nifenazone]" assigned_label="not satisfied"

Q: Confirm or reject: LPS % cell toxicity of CC(=O)OCC(=O)[C@@]1(O)[C@H](OC(C)=O)C[C@H]2[C@@H]3CCC4=CC(=O)C=C[C@]4(C)[C@@]3(F)[C@@H](O)C[C@@]21C [Triamcinolone diacetate, reference compound] lies strictly below 1%
A: not satisfied

Q: Is 1% strictly greater than the compound's reported LPS % cell toxicity? compound: O=C(N/N=C/c1ccc([N+](=O)[O-])o1)c1ccc(O)cc1 [Nifuroxazide]
A: not satisfied

Q: I wonder whether CCN(CC)C(=O)N[C@H]1C=C2c3cccc4[nH]cc(c34)C[C@H]2N(C)C1 [Lisuride] has LPS % cell toxicity below 1%. Can you tell?
A: satisfied

---

compounds and their reported Fibrin % inhibition
System: fibrin-induced microglia activation
Experiment: Image-based assay of fibrin-induced microglia activation (HTS and dose response)
Format: cell-based, rat
Conditions: primary microglia HTS, fibrin stimulation; increased cell size (>800 μm^2) as marker of activation
Your answer should be a plain number; it is taken to be in %.

compound=CC(=O)OC[C@H]1O[C@@H]([S-])[C@H](OC(C)=O)[C@@H](OC(C)=O)[C@@H]1OC(C)=O.CCP(CC)CC.[Au+] result_value=106
compound="CCOC(=O)C1=C[C@@H](OC(CC)CC)[C@H](NC(C)=O)[C@@H](N)C1 [Oseltamivir]" result_value=−28
compound="CSc1ccc2c(c1)C(N1CCN(C)CC1)Cc1ccccc1S2 (centres unmarked)" result_value=11
compound="CCN[C@@H]1C[C@H](N)[C@@H](O[C@H]2OC(CN)=CC[C@H]2N)[C@H](O)[C@H]1O[C@H]1OC[C@](C)(O)[C@H](NC)[C@H]1O.CCN[C@@H]1C[C@H](N)[C@@H](O[C@H]2OC(CN)=CC[C@H]2N)[C@H](O)[C@H]1O[C@H]1OC[C@](C)(O)[C@H](NC)[C@H]1O.O=S(=O)(O)O.O=S(=O)(O)O.O=S(=O)(O)O.O=S(=O)(O)O.O=S(=O)(O)O [Netilmicin Sulfate]" result_value=−6

Now for the compound whose Fibrin % inhibition we want.
Q: Give the measured Fibrin % inhibition of COC(=O)[C@@H]1CC2=CC(=O)CC[C@]2(C)[C@@]23O[C@@H]2C[C@@]2(C)[C@@H](CC[C@@]24CCC(=O)O4)[C@H]13 [Eplerenore, reference compound] .
A: 63

---

System: primary rat microglia
Details: rat
Structures can show the parent of a compound that is named as a salt.
Observed property: Fibrin % cell toxicity (%)
Lab book: enter the figure in %, no units written.

Some entries whose results are on file:
molecule="COc1cc(NC(C)CCCN)c2ncccc2c1 (stereo not drawn)" observed_property="Fibrin % cell toxicity" result_value=0
molecule="CC(=O)Nc1ccccc1 [Acetanilide]" observed_property="Fibrin % cell toxicity" result_value=0
molecule=NC[C@@H]1CC[C@@H](N)[C@@H](O[C@H]2[C@H](O)[C@@H](O[C@H]3O[C@H](CO)[C@@H](O)[C@H](N)[C@H]3O)[C@H](N)C[C@@H]2N)O1 observed_property="Fibrin % cell toxicity" result_value=1
molecule=CN(C)CCOc1ccc(/C(=C(/CCCl)c2ccccc2)c2ccccc2)cc1 observed_property="Fibrin % cell toxicity" result_value=1
molecule=Cn1cnc([N+](=O)[O-])c1Sc1ncnc2nc[nH]c12 observed_property="Fibrin % cell toxicity" result_value=0

Q: Fibrin % cell toxicity lookup needed for O=C(O)c1cc(=O)[nH]c(=O)[nH]1 , thanks.
A: 0

Q: Query (molecule): CN1CCN(C2=Nc3cc(Cl)ccc3Nc3ccccc32)CC1 ; field requested: Fibrin % cell toxicity
A: 0

Q: # input molecule: CC1CCC(C(C)C)C(O)C1 (stereo not drawn) ; wanted: its Fibrin % cell toxicity
A: 1

Q: Which Fibrin % cell toxicity value is on record for NC(=O)C(c1ccccc1)(c1ccccc1)[C@@H]1CCN(CCc2ccc3c(c2)CCO3)C1 [Darifenacin Hydrobromide] ?
A: 1
